- assayedTarget: rat PGT (Rattus norvegicus (Rat), UniProt Q00910)
- measurementProtocol: [3H]PGE2 uptake inhibition in MDCK cells stably transfected with rat PGT (percent inhibition and IC50)
- Assay type: cell-based
- conditionInfo: 0.1 μM compound; inhibition of [3H]PGE2 uptake
measuredQuantity: Inh (% of Ctl) 0.1 μM

Recorded Inh (% of Ctl) 0.1 μM, per entry:
O=C(NCCOCCOCCNc1nc(Nc2ccc(O)cc2)nc(Nc2ccc(C(=O)NCc3ccccc3F)cc2)n1)c1ccccc1 [compound 110] | 69.6 % of Ctl
CN(c1ccc(O)cc1)c1nc(NCCOCCOCCNC(=O)c2ccccc2)nc(Nc2ccc(C(=O)NCc3ccccc3)cc2)n1 [compound 123] | 12.0 % of Ctl
O=C(NCCOCCOCCNc1nc(Nc2ccc(O)cc2)nc(Nc2ccc(C(=O)NCc3ccccc3Cl)cc2)n1)c1ccccc1 [compound 106] | 68.4 % of Ctl

Param readout= Inh (% of Ctl) 0.1 μM; system= rat PGT (Rattus norvegicus (Rat), UniProt Q00910); entry= O=C(NCc1ccccc1)c1ccc(Nc2nc(NCCOCCNCc3ccccc3)nc(Nc3ccc(O)cc3)n2)cc1 [compound 141] ; returns value.
12.7 % of Ctl

Values compiled from patent US8952150B2.
